Test system: Neonatal foreskin fibroblast (NFF) cells
Experiment: Mammalian cell cytotoxicity assay (sulforhodamine B)
Type: cell-based, human
Settings: Homo sapiens, NFF; 20 µM; ±SD
Protocol: The selectivity of compounds of interest was assessed against NFF cells. Assays were performed using sulforhodamine B and included media only, negative (no compound, no DMSO), and vehicle (DMSO) controls as previously described. A chloroquine control plate was included in each assay. […] Repurchased SN00797640 was tested in dose–response from 100 µM against NFF. Selectivity indices (SI) were calculated by dividing mammalian cell IC50 values by G. duodenalis BRIS/91/HEPU/1279 IC50 values.
metric: inhibition at 20 µM (%)
One number for each entry, in %.

COc1ccc(-c2csc(C3=C(N)N(CC(C)(C)CN(C)C)CC3=O)n2)cc1OC: 24
Cc1ncc([N+](=O)[O-])n1Cc1csc(Cc2ccccc2)n1: 9.2
Cn1nccc1-c1cccc(-c2noc(-c3cccc(F)c3)n2)c1: -9
Nc1c(-c2nc(-c3ccccc3)cs2)c2ccccn2c1C(=O)c1ccc2c(c1)OCO2: 41.6
O=C(NC1CCCCC1)c1nc(Nc2ccccc2)c2ccccc2n1: 21.3

Required: inhibition at 20 µM, one value per molecule below.
1. COc1ccc(C)cc1N1C(=O)C(c2ccccc2)C(c2nc3ccccc3s2)=C1N (stereo not shown)
2. COc1cc(NS(=O)(=O)c2ccc(C)cc2)cc2sc(NC(=O)c3ccccc3)nc12
3. COc1ccc(NC(=O)c2ccc(-c3cc(NC4CCCCC4)ncn3)cc2)cc1
4. Cc1ccc(C(=O)Nc2cc(-c3nc(C)cs3)sc2C)cc1 [SN00798457, Cc1ccc(cc1)C(=O)Nc1cc(sc1C)c1scc(C)n1]
5. CCOc1ccc(CCNC(=O)c2ccc3c(c2)nc2n3CCOC2)cc1OCC
6. COc1cc(OC)c(C2=CCN(C(=O)c3ccc(C)s3)CC2)c(OC)c1
7. Cc1ccc(C)c(-c2cc3c4nn(CC(=O)N(C)c5ccc(F)cc5)c(=O)n4ccn3n2)c1
8. CN(C)CCn1cc(C(=O)c2cc(Cl)ccc2O)cc1-c1nc2ccccc2c(=O)[nH]1

[100, 53.3, 23.1, 16.3, -24.8, -9.1, 40.4, 8.4]

Required: inhibition at 20 µM, one value per molecule below.
1. Cc1ccc(-n2c(=O)c3c(cnn3C)n(CC(=O)Nc3ccccc3C)c2=O)cc1
2. COc1c(C)cnc(Cn2cnc([N+](=O)[O-])c2)c1C

1. -1.1
2. -6.3

Which inhibition at 20 µM is reported with Neonatal foreskin fibroblast (NFF) cells for this entry: Cc1cccc(CNS(=O)(=O)c2cc(-c3csc(C)n3)sc2C)c1 ?
19.3

---

system: G. duodenalis BRIS/91/HEPU/1279; test: Primary Giardia screen at 10 µM (live-cell imaging, automated counting); assay type: cell-based, Giardia duodenalis; details: 48 h, first singlicate assay
Can you tell me % Inhibition n=1 48h for the items I'm about to list?
Answers are plain numbers, in %.

Required: % Inhibition n=1 48h, one value per compound below.
1. COCCS(=O)(=O)N1CCCC1Cn1ccnc1 (centres unmarked)
2. Cn1nc2c(c1NC(=O)c1cccc(NC(=O)C(C)(C)C)c1)CCC2
3. CCOC(=O)c1csc(-n2nc(CC(C)C)cc2C(F)(F)F)n1
4. CCCNC(=O)[C@@H]1[C@@H]2C=C[C@@]3(CN(Cc4ccccc4Cl)C(=O)[C@H]13)O2 (relative stereo)

1: 0.0; 2: 0.0; 3: 29.0; 4: 16.0

Fill in the blank: the reported % Inhibition n=1 48h of CN(C)C(=O)N1CCN(Cc2nc3c(cnn3C)c(=O)[nH]2)CC1 is ____.
0.0

---

test system: G. duodenalis BRIS/91/HEPU/1279; assay: Primary Giardia screen at 10 µM (live-cell imaging, automated counting); type: cell-based, Giardia duodenalis; conditions: 48 h, first singlicate assay
Can you tell me % Inhibition n=1 48h for the items I'm about to list?
Numbers only, in %.

Examples with answers:
COc1ccccc1-c1nc(C2CCN(C(=O)COc3ccccc3)CC2)no1: 15.9
COc1ccc(C(=O)N2c3ccccc3NC(=O)CC2C)cc1OC (stereo not drawn): 0.0
COc1ccc(CNC(=O)c2ccc(-c3noc(C4CCCN(C(=O)c5ccccc5)C4)n3)cc2)cc1 (stereo not drawn): 14.7

Required: % Inhibition n=1 48h, one value per compound below.
1. COc1ccc(S(=O)(=O)N2CCN(c3cc(=O)n4nc(-c5ccccc5C)sc4n3)CC2)cc1
2. COc1ccc(-c2cc3c(=O)n(Cc4cccc(F)c4)ccn3n2)cc1
3. COc1ccc(S(=O)(=O)N2CCc3nc(-c4ccccc4)ncc3C2)cc1
4. O=C1CC(C(=O)N2CCN(S(=O)(=O)c3ccc(Br)cc3)CC2)c2ccc(F)cc2N1 (stereo not drawn)
5. Cn1cc(CN2C(=O)NC(C)(c3ccco3)C2=O)cn1 (stereo not drawn)
6. Cc1ccc(C(=O)N2CCC(Oc3ncccc3C(=O)N3CCCCC3)C2)c(C)c1 (stereo not drawn)

[10.6, 0.0, 6.9, 0.0, 16.2, 0.0]

---

tested on: G. duodenalis BRIS/91/HEPU/1279; assay: Primary Giardia screen at 10 µM (live-cell imaging, automated counting); format: cell-based, Giardia duodenalis; conditions: 48 h, first singlicate assay
metric: % Inhibition n=1 48h (%)
Give bare numbers, in %.

COc1ccc(CNS(=O)(=O)c2ccc3onc(C(=O)N4CCCCC4)c3c2)cc1OC: 0.0
CCCc1cc(N2CCOCC2)n2nc(C)c(-c3ccccc3)c2n1: 20.2
CCCN(C(=O)c1cccc(NC(=O)[C@H]2[C@@H]3C[C@@H]4[C@H]2C(=O)O[C@@H]4C3)c1)c1ccccc1F (relative stereo): 2.8

Which % Inhibition n=1 48h is reported with G. duodenalis BRIS/91/HEPU/1279 for this entry: Cc1onc(-c2ccccc2)c1-c1nnc(CN2CCCN(CC(=O)NC(C)(C)C)CC2)o1 ?
2.0

---

test system: G. duodenalis BRIS/91/HEPU/1279; assay: Primary Giardia screen at 10 µM (live-cell imaging, automated counting); assay type: cell-based, Giardia duodenalis; conditions: 48 h, first singlicate assay
Rule: % Inhibition n=1 48h of 20% or more gives criterion met; anything lower gives criterion not met.

As a guide, the following entries are already answered.
O=C(Nc1ccc(N2CCN(C3CCCCC3)C2=O)nc1)c1ccc(Cl)s1: criterion met
O=C(Cc1csc(N2CCCNC2=O)n1)Nc1ccccc1OC(F)F: criterion not met

In plain terms: is recorded % Inhibition n=1 48h at least 20% for Cc1ccccc1CS(=O)(=O)Cc1ccc(-c2nc(-c3ccc(Br)cc3)no2)o1 ?
criterion not met

In plain terms: is recorded % Inhibition n=1 48h at least 20% for O=C(NCC1CCCO1)Nc1ccc2sc(NS(=O)(=O)c3ccccc3)nc2c1 (stereo not drawn) ?
criterion met

In plain terms: is recorded % Inhibition n=1 48h at least 20% for CC(NC(=O)c1cc2ccncc2[nH]1)c1ccccc1 (stereo not drawn) ?
criterion not met

In plain terms: is recorded % Inhibition n=1 48h at least 20% for Cc1cc(=O)n2nc(N(C)CC(=O)NC3CCCc4ccccc43)sc2n1 (stereo not drawn) ?
criterion met

In plain terms: is recorded % Inhibition n=1 48h at least 20% for Cc1nc2c(c(=O)n1CC(=O)Nc1cccc(F)c1)CCN(Cc1ccccc1)C2 ?
criterion not met

In plain terms: is recorded % Inhibition n=1 48h at least 20% for CC(=O)N1CCc2cc(C(=O)CN3CC(C)CC(C)C3)ccc21 (stereo not drawn) ?
criterion not met

In plain terms: is recorded % Inhibition n=1 48h at least 20% for Cc1nc(S(=O)(=O)c2ccc(Br)cc2)c(NCc2ccccc2)o1 ?
criterion met

In plain terms: is recorded % Inhibition n=1 48h at least 20% for CCc1nc(C)c2c(C)c(C(=O)N3CCN(c4ncccn4)CC3)sc2n1 ?
criterion met

In plain terms: is recorded % Inhibition n=1 48h at least 20% for Cc1ccc(C2c3cccn3-c3ccccc3CN2C(=O)c2cccnc2)cc1 (stereo not drawn) ?
criterion not met

In plain terms: is recorded % Inhibition n=1 48h at least 20% for COCCN1CCCN(C(=O)C2CCCN(S(C)(=O)=O)C2)CC1 (stereo not drawn) ?
criterion not met

In plain terms: is recorded % Inhibition n=1 48h at least 20% for CCn1nnc(NCc2ccc(-c3ccccc3)cc2)n1 ?
criterion not met

In plain terms: is recorded % Inhibition n=1 48h at least 20% for Cc1nn(-c2ccccc2)c2c1C(C(=O)NC1CCCC1)N(c1ccc(F)cc1F)C(=O)CS2 (stereo not drawn) ?
criterion not met

In plain terms: is recorded % Inhibition n=1 48h at least 20% for O=C(c1ccc2[nH]cnc2c1)N1CCN(Cc2cccc(Cl)c2)CC1 ?
criterion not met

In plain terms: is recorded % Inhibition n=1 48h at least 20% for O=C(c1c[nH]nc1-c1ccc(Cl)cc1)N1CCN(c2ccccc2)CC1 ?
criterion met

In plain terms: is recorded % Inhibition n=1 48h at least 20% for CCC(C)NC(=O)N1CCc2c(sc3nc(-c4ccc(C)cc4)nn23)C1 (stereo not drawn) ?
criterion not met

In plain terms: is recorded % Inhibition n=1 48h at least 20% for CN(C[C@@]12CCC[C@H]1N(C)C(=O)CC2)C(=O)c1ccc2c(c1)OCO2 (relative stereo) ?
criterion met
